B1: tRNA (parent)
chain: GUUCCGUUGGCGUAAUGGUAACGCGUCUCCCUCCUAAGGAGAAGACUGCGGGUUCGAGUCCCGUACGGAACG

# Variants of: B1
# procedure details: yeast fitness relative to wild type (ratio to wild type); higher = fitter; tRNA-Arg(CCU), competitive growth, 37 C, YPD
Variants at the floor of the assay were thinned out.
Would you kindly list yeast fitness for each of these variants?
// return just the number, without any unit appended

Inquiry: Using the record for G18C C33G C49A C55U , report its yeast fitness.
Reply text: 0.517

Inquiry: Using the record for U3A C29A , report its yeast fitness.
Reply text: 0.653
